Just for reference, patent US12312370B2 is where these values come from.

Subject of test: constitutive proteasome β5c unit (Homo sapiens)
Procedure text: Caliper-based proteasome enzymatic activity assay, β5c
Applied conditions: human recombinant constitutive proteasome 0.3 nM, FAM-labeled peptide substrate 1 μM, rt 3 h; read-out: β5c subunit IC50
Attribute measured: IC50 (nM)
Numeric answer only, unit nM assumed.

Recorded IC50 of C=CC(=O)N1CC[C@@H]1COC(=O)N[C@@H](Cc1coc2ccccc12)B(O)O , please. 126

Recorded IC50 of CC(C)C=C(C#N)C(=O)NCCCC[C@H](NC(=O)c1cc(Cl)ccc1Cl)C(=O)N[C@@H](Cc1ccccc1)B(O)O , please. 4.4

Recorded IC50 of CC(C)C=C(C#N)C(=O)NCCCC[C@H](NCC(F)(F)F)C(=O)N[C@@H](Cc1ccccc1)B(O)O , please. 292

Recorded IC50 of C[C@H]1CN(C(C)(C)C=C(C#N)C(=O)N2C3CCC2(COC(=O)N[C@@H](Cc2ccccc2)B(O)O)CC3)CCO1 , please. 1170

Recorded IC50 of C[C@@H]1CN(C(C)(C)C=C(C#N)C(=O)N2C3CCC2(COC(=O)N[C@@H](Cc2ccccc2)B(O)O)CC3)C[C@@H](C)O1 , please. 967

Recorded IC50 of C[C@@H]1CN(C(C)(C)C=C(C#N)C(=O)N2CCCC[C@@H](OC(=O)N[C@@H](Cc3ccccc3)B(O)O)C2)C[C@H](C)O1 , please. 2420
